Cited source for all entries: patent US20260116991A1

I'd appreciate it if you could supply OD450 nm values for the items below.
- experimental-target: T1, murine GPC3-his protein (murine, UniProt Q8CFZ4 25-558, limits assumed)
- T1 construct: Bought protein; also called mouse GPC3 protein; murine GPC3 protein; not shown: His tag
- T1 sequence (Q8CFZ4 25-558 limits assumed): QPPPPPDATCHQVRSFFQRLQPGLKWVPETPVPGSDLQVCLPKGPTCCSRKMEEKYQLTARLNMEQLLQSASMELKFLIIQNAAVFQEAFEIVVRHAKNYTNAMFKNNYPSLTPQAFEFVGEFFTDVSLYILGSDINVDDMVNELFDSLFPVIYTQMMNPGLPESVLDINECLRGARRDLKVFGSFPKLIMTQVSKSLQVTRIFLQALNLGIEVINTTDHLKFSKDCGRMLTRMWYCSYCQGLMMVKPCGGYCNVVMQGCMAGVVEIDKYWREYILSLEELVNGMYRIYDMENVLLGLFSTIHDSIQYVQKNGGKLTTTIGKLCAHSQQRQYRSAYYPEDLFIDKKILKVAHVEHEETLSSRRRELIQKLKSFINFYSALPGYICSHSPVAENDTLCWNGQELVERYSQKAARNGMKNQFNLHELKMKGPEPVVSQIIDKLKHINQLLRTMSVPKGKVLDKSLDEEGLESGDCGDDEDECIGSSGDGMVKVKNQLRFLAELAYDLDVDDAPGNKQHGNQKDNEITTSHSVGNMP
- method-notes: ELISA, murine GPC3-his coated; antibody 13.33 nM
Give bare numbers.

Solved entries:
binder="hAb001H2L1 (antibody, human IgG1, V domains shown, Humanized F2.169.2, H2+L1) VH: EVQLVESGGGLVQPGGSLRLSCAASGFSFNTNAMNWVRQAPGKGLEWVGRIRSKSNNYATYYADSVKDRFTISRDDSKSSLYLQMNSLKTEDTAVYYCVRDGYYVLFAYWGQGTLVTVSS VL: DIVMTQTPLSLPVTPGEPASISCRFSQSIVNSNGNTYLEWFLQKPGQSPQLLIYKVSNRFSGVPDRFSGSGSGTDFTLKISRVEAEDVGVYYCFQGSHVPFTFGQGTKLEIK" data_value=2.62
binder="hAb001H1L1a (antibody, human IgG1, V domains shown, Humanized F2.169.2, H1+L1a) VH: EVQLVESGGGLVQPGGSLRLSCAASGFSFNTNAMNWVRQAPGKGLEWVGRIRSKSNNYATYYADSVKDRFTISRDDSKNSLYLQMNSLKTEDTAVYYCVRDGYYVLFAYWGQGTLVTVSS VL: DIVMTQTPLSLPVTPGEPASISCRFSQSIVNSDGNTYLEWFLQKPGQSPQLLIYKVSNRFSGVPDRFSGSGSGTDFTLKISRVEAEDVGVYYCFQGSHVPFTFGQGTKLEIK" data_value=2.57
binder="hAb001H1aL1b (antibody, human IgG1, V domains shown, Humanized F2.169.2, H1a+L1b) VH: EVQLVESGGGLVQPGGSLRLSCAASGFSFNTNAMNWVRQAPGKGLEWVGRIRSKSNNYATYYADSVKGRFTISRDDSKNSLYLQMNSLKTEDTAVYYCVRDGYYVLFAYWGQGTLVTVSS VL: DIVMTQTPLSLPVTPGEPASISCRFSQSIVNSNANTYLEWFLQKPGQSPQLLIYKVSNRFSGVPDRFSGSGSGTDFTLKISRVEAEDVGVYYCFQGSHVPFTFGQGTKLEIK" data_value=2.73

Q. Could you tell me which OD450 nm is on file for hAb001H2L1a (antibody, human IgG1, V domains shown, Humanized F2.169.2, H2+L1a) VH: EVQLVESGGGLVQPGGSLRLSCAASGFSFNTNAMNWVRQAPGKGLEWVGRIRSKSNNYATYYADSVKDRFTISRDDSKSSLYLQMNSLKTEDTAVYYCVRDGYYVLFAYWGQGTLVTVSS VL: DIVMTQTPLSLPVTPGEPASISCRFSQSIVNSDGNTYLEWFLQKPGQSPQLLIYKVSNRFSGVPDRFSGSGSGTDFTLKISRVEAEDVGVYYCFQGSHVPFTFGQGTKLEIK ?
A. 2.41
